Entry source: paper PMC8831599

- TESTED_TARGET: T1, GST-TIR1-ASK1 complex (Arabidopsis thaliana, UniProt Q570C0 1-594; Q39255 1-160)
- T1 construct: F-box protein TIR1, Arabidopsis thaliana; ASK1 (SKP1 homologue), Arabidopsis thaliana; also called GST-tagged TIR1
- T1 sequence (looked up) 1: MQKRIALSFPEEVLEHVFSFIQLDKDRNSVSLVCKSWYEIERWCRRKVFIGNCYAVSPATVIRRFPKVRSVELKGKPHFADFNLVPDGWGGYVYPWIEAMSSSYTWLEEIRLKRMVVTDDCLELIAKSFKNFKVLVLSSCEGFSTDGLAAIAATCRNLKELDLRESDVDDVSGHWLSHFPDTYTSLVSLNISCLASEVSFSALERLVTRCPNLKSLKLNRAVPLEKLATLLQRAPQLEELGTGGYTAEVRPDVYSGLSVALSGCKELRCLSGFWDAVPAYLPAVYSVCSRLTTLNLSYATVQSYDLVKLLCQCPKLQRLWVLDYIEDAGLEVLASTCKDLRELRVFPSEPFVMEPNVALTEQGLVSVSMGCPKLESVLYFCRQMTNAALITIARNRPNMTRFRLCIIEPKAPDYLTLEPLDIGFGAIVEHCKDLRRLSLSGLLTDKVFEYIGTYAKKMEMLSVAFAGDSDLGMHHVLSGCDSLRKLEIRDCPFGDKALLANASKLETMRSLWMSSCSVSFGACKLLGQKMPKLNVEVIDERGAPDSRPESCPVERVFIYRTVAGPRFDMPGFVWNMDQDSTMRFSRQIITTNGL
- T1 sequence (looked up) 2: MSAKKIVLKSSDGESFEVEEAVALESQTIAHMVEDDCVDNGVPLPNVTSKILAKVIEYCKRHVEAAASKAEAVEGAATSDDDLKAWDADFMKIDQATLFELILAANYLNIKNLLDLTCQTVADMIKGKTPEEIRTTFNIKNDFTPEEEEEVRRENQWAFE
- PROTOCOL_NOTES: AlphaScreen or HTRF; competition without auxin: 0.9 nM GST-TIR1 on acceptor beads, 8.3 nM biotinylated IAA7 degron peptide on donor beads, label-free IAA7 degron peptide titrated
- RUN_PARAMETERS: both partners purified
pIC50: −log10 of the molar value.
PARAMETER_MEASURED: pIC50

// returns reported pIC50 for input QVVGWPPVRNYRK (synthetic peptide, unlabelled; limits not given, taken from the IAA7 degron peptide of the TIR1-ASK1 crystal structures (13-mer, PDB 2P1Q)) [IAA7 degron peptide, non-labeled]
4.70 to 4.74
